Assay: AUClast in male Sprague-Dawley rat at 4 mg/kg, iv measured up to 24 hrs by LC-MS/MS analysis
Type: ADME, organism-based
Parameters: route intravenous, dose 4 mg/kg, time <=24
Details: in vivo
REPORTED PROPERTY: AUC(0-t) at 24 h (ng·h/mL)
Give bare numbers, in ng·h/mL.

**Q:** Provide one value: measured AUC(0-t) at 24 h of `Cc1cc(CN[C@H](CO)C(=O)O)c(OCc2cncc(C#N)c2)cc1NCc1cccc(-c2ccccc2)c1C`
**A:** 905

---

Target: Programmed cell death 1 ligand 1 (Homo sapiens, UniProt Q9NZQ7)
Sequence (Q9NZQ7 whole entry): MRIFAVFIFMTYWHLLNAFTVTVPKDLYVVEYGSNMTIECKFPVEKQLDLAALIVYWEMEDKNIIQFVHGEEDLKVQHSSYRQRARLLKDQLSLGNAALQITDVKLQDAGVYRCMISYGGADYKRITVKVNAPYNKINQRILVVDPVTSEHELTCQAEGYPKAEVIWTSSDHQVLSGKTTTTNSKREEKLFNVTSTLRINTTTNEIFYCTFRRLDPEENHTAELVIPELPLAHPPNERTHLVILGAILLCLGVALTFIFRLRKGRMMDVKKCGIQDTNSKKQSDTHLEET
Test: Binding affinity to biotinylated human AVI-PD-L1 assessed as association constant by biolayer interferometry
REPORTED PROPERTY: association rate constant (kon)

Answered cases to consult:
{"columns": ["STRUCTURE NOTATION", "ASSAY TARGET", "association rate constant (kon)"],
 "data": [
  ["Cc1cc(CN[C@H](CO)C(=O)O)c(OCc2cncc(C#N)c2)cc1NCc1cccc(-c2ccccc2)c1C", "Programmed cell death 1 ligand 1 (Homo sapiens, UniProt Q9NZQ7)", "2.17 10^6/M/s"],
  ["Cc1c(CNc2ccc(CN[C@H](CO)C(=O)O)c(OCc3cccc(C#N)c3)c2)cccc1-c1ccccc1", "Programmed cell death 1 ligand 1 (Homo sapiens, UniProt Q9NZQ7)", "6.51 10^5/M/s"],
  ["Cc1c(CNc2ccc(CN[C@H](CO)C(=O)O)c(OCc3cncc(C#N)c3)c2)cccc1-c1ccccc1", "Programmed cell death 1 ligand 1 (Homo sapiens, UniProt Q9NZQ7)", "8.49 10^5/M/s"]
]}

Turning now to a further record.
**Q:** Give the reported association rate constant (kon) for this compound. `COc1cc(NCc2cccc(-c3ccccc3)c2C)c(Cl)cc1CN[C@H](CO)C(=O)O`
**A:** 1.29 10^6/M/s
